# study target: IKZF1 (Homo sapiens (Human), UniProt Q13422+Q96SW2)
# Sequence (Q13422 whole entry): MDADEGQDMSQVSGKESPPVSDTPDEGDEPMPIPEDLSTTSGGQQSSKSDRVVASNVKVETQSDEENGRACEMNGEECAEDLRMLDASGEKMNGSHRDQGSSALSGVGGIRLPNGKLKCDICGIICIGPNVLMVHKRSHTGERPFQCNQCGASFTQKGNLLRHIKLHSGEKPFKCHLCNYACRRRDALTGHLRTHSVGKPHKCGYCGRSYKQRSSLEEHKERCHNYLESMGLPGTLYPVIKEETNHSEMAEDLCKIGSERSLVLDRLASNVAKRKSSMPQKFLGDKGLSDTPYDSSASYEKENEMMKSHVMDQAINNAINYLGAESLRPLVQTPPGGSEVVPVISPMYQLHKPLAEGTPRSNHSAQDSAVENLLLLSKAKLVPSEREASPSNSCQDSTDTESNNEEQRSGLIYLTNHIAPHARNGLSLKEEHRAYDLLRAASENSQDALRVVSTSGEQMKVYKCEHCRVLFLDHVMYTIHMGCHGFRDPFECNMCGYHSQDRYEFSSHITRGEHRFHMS
# Sequence (Q96SW2 whole entry): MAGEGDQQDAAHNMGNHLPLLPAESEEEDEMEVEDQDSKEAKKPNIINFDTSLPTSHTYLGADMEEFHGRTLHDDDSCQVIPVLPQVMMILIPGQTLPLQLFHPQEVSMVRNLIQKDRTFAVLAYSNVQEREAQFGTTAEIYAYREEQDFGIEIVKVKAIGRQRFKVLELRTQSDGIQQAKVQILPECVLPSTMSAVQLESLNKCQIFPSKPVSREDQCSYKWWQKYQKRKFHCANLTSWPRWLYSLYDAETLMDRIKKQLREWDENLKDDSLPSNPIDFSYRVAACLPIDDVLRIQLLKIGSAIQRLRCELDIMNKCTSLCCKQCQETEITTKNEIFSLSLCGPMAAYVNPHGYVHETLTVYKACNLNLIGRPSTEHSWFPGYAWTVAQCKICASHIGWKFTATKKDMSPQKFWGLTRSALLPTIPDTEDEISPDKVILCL
# Sequence (Q16531 whole entry partner): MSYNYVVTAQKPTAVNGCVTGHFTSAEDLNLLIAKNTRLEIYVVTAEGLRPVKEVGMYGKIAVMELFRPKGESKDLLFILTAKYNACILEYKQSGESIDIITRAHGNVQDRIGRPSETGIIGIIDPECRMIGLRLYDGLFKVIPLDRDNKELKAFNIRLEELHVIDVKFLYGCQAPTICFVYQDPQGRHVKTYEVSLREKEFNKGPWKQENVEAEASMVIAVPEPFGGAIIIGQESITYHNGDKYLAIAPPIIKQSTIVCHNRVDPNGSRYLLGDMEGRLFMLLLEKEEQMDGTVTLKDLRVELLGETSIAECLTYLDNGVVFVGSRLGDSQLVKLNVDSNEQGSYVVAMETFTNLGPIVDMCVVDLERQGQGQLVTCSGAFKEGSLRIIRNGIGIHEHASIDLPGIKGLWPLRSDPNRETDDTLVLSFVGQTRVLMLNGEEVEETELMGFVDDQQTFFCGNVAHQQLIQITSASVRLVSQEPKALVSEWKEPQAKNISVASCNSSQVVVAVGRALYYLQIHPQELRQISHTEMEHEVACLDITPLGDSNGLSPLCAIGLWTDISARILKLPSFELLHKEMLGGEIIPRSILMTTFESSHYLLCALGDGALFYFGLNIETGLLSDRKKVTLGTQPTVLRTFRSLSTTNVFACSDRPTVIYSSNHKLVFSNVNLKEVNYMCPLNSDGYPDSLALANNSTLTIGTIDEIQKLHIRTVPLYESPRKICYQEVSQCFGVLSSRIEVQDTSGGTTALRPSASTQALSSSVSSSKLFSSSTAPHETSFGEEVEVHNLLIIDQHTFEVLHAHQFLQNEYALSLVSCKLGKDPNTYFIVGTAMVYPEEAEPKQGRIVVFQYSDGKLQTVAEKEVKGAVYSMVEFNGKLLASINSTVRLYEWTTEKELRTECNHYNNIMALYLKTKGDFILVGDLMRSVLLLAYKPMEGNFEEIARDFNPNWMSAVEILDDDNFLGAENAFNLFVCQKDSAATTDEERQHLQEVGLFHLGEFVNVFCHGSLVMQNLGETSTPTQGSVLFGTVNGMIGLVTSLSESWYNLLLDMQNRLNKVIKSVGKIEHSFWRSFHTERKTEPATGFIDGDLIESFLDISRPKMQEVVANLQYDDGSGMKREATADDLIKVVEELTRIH
# experimental protocol: IKZF1 HiBit Assay (HEK293T Flp-in-HiBiT-IKZF1 stable cell line)
# Type: cell-based
# details: HEK-293T; HEK293T Flp-in-HiBiT-IKZF1 cells, 6 hrs; read-out: IKZF1 HiBit degradation Dmax
measurement type: Dmax

INSERT INTO results (molecule, result) VALUES
  ('O=C1CC[C@H](N2Cc3c(ccc4c3OCC43CCN(Cc4cnn(CC5CCOCC5)c4)CC3(F)F)C2=O)C(=O)N1 (stereo partly shown)', '< 20%'),
  ('CC1CN(Cc2cccc(-c3cnn(C)c3)c2)CCC12COc1c2ccc2c1CN(C1CCC(=O)NC1=O)C2=O (stereo not shown)', '< 20%'),
  ('Cn1cc2ccc(CN3CCC4(COc5c4ccc4c5CN([C@H]5CCC(=O)NC5=O)C4=O)C(F)(F)C3)cc2n1 (stereo partly shown)', '< 20%'),
  ('Cn1ncc2cccc(CN3CCC4(COc5c4ccc4c5CN([C@H]5CCC(=O)NC5=O)C4=O)C(F)(F)C3)c21 (stereo partly shown)', '20 to 40%'),
  ('Cn1cc(-c2cccc(CN3CCC4(CC3)COc3c4cc(C#N)c4c3CN([C@H]3CCC(=O)NC3=O)C4=O)c2)cn1', '< 20%'),
  ('N#Cc1ccc(-n2cc(CN3CCC4(COc5c4ccc4c5CN([C@H]5CCC(=O)NC5=O)C4=O)C(F)(F)C3)cn2)cc1 (stereo partly shown)', '< 20%'),
  ('[2H]C([2H])(c1cccc(-c2cnn(C([2H])([2H])[2H])c2)c1)N1CCC2(CC1)COc1c2ccc2c1CN([C@H]1CCC(=O)NC1=O)C2=O', '< 20%'),
  ('N#Cc1ccc(-n2cc(CN3CCC4(CC3)CNc3c4ccc4c3CN([C@H]3CCC(=O)NC3=O)C4=O)cn2)cc1', '< 20%'),
  ('Cn1cc2c(CN3CCC4(COc5c4ccc4c5CN([C@H]5CCC(=O)NC5=O)C4=O)C(F)(F)C3)cccc2n1 (stereo partly shown)', '< 20%'),
  ('Cn1cc2cccc(CN3CCC4(COc5c4ccc4c5CN([C@H]5CCC(=O)NC5=O)C4=O)C(F)(F)C3)c2n1 (stereo partly shown)', '20 to 40%'),
  ('O=C1CC[C@@H](N2Cc3c(ccc4c3OCC43CCN(Cc4cccc(-c5cnn(C6COC6)c5)c4)CC3)C2=O)C(=O)N1', '< 20%'),
  ('[2H]C([2H])(c1cccc(-c2cnn(C)c2)c1)N1CCC2(CC1)COc1c2ccc2c1CN([C@H]1CCC(=O)NC1=O)C2=O', '< 20%'),
  ('[2H]C([2H])([2H])n1cc(-c2cccc(CN3CCC4(CC3)COc3c4ccc4c3CN([C@H]3CCC(=O)NC3=O)C4=O)c2)cn1', '< 20%');
